For each of the compounds below, state its Drug uptake.
- Test system: Striatum
- testDetails: Biodistribution in Sprague-Dawley rat striatum at 14.8 to 18.5 MBq, iv measured at 60 mins post-injection by gamma counting analysis
- Assay type: ADME, organism-based
- conditionDetails: in vivo, 1 h
Give the number; % ID/g is assumed, so skip it.

(Q) Need Drug uptake, item Cn1cc(-c2ccncc2)c(-c2ccc(OCc3ccc4cc(O[11CH3])ccc4n3)cc2)n1
(A) 0.089

(Q) Need Drug uptake, item Cn1cc(-c2ccncc2)c(-c2ccc(OCc3cc(O[11CH3])c4ccccc4n3)cc2)n1
(A) 0.201

(Q) Need Drug uptake, item Cn1ncc(-c2ccncc2)c1-c1ccc(OCc2cc(O[11CH3])c3ccccc3n2)cc1
(A) 0.037

(Q) Need Drug uptake, item Cn1cc(-c2ccncc2)c(-c2ccc(OCc3nc4ccccc4cc3O[11CH3])cc2)n1
(A) 0.38
